Provide the reported one-hybrid fitness for binding parS DNA of each item.
B1: Caulobacter ParB omega fusion; a variant is named by its letters at X, in order, B8GW30 (parent)
chain: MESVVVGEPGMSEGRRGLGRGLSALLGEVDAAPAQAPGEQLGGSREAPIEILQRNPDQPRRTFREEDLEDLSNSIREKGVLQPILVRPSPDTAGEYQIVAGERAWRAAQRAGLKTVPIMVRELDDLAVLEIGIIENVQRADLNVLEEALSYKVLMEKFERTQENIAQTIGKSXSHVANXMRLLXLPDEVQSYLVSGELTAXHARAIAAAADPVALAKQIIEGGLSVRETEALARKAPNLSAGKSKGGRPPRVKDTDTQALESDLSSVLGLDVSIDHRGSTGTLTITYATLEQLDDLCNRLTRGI

Variants of: B1
method summary: one-hybrid fitness for binding parS DNA (scaled: cognate 1, non-cognate 0); higher = stronger binding
recorded conditions: with parS DNA site
In all, about 81,000 sequences were measured (“one-hybrid fitness for binding parS DNA”: median about -0.17, highest 2% from about 0.51 on). For the sample, the highest values were picked, then their nearest neighbours and some sequences at random.

Task: # input variant: RITT ; wanted: its one-hybrid fitness for binding parS DNA
Result: 0.931

Task: Likewise for KMSG ?
Result: ≤ 0.2

Task: Likewise for RHYS ?
Result: 0.976

Task: Likewise for SPEG ?
Result: ≤ 0.2

Task: Likewise for RATT ?
Result: 0.915

Task: Likewise for LLNS ?
Result: ≤ 0.2

Task: Likewise for QHYD ?
Result: ≤ 0.2

Task: Likewise for QRTQ ?
Result: ≤ 0.2

Task: Likewise for PPRW ?
Result: ≤ 0.2

Task: Likewise for YPIF ?
Result: ≤ 0.2

Task: Likewise for RHRD ?
Result: ≤ 0.2

Task: Likewise for YMQL ?
Result: ≤ 0.2

Task: Likewise for PRLY ?
Result: ≤ 0.2

Task: Likewise for WLLH ?
Result: ≤ 0.2

Task: Likewise for KARL ?
Result: ≤ 0.2

Task: Likewise for RATK ?
Result: ≤ 0.2

Task: Likewise for DRKV ?
Result: ≤ 0.2

Task: Likewise for RKNQ ?
Result: ≤ 0.2

Task: Likewise for TVWR ?
Result: ≤ 0.2

Task: Likewise for RPTT ?
Result: ≤ 0.2

Task: Likewise for QNCR ?
Result: ≤ 0.2

Task: Likewise for VKNG ?
Result: ≤ 0.2

Task: Likewise for APDA ?
Result: ≤ 0.2

Task: Likewise for VEGN ?
Result: ≤ 0.2

Task: Likewise for RHHS ?
Result: 0.914

Task: Likewise for GPYH ?
Result: 0.233

Task: Likewise for SKAT ?
Result: ≤ 0.2

Task: Likewise for PAVG ?
Result: ≤ 0.2

Task: Likewise for NMCG ?
Result: ≤ 0.2

Task: Likewise for RHID ?
Result: ≤ 0.2

Task: Likewise for KIKS ?
Result: ≤ 0.2

Task: Likewise for RHTQ ?
Result: ≤ 0.2

Task: Likewise for NLPL ?
Result: ≤ 0.2

Task: Likewise for RKNG ?
Result: 0.907

Task: Likewise for MPRE ?
Result: ≤ 0.2

Task: Likewise for RHPS ?
Result: 0.475

Task: Likewise for RHHN ?
Result: 0.391

Task: Likewise for RFFS ?
Result: 0.841

Task: Likewise for DKPG ?
Result: ≤ 0.2
